- CONDITION NOTES: in ethanol, 283.15 K
READOUT TYPE: solubility (mole fraction)

CO/N=C(\C(=O)N[C@@H]1C(=O)N2C(C(=O)O)=C(CSc3nnnn3C)CS[C@H]12)c1csc(N)n1.CO/N=C(\C(=O)N[C@@H]1C(=O)N2C(C(=O)O)=C(CSc3nnnn3C)CS[C@H]12)c1csc(N)n1.Cl ... 2.61e-05

====

- CONDITION NOTES: in ethanol, 303.15 K
READOUT TYPE: solubility (mole fraction)

CO/N=C(\C(=O)N[C@@H]1C(=O)N2C(C(=O)O)=C(CSc3nnnn3C)CS[C@H]12)c1csc(N)n1.CO/N=C(\C(=O)N[C@@H]1C(=O)N2C(C(=O)O)=C(CSc3nnnn3C)CS[C@H]12)c1csc(N)n1.Cl ... 3.8e-05

====

- CONDITION NOTES: in water, 303.15 K
READOUT TYPE: solubility (mole fraction)

CO/N=C(\C(=O)N[C@@H]1C(=O)N2C(C(=O)O)=C(CSc3nnnn3C)CS[C@H]12)c1csc(N)n1.CO/N=C(\C(=O)N[C@@H]1C(=O)N2C(C(=O)O)=C(CSc3nnnn3C)CS[C@H]12)c1csc(N)n1.Cl ... 5.29e-05

====

- CONDITION NOTES: in ethanol, 298.15 K
READOUT TYPE: solubility (mole fraction)

CO/N=C(\C(=O)N[C@@H]1C(=O)N2C(C(=O)O)=C(CSc3nnnn3C)CS[C@H]12)c1csc(N)n1.CO/N=C(\C(=O)N[C@@H]1C(=O)N2C(C(=O)O)=C(CSc3nnnn3C)CS[C@H]12)c1csc(N)n1.Cl ... 3.17e-05

====

- CONDITION NOTES: in water, 293.15 K
READOUT TYPE: solubility (mole fraction)

CO/N=C(\C(=O)N[C@@H]1C(=O)N2C(C(=O)O)=C(CSc3nnnn3C)CS[C@H]12)c1csc(N)n1.CO/N=C(\C(=O)N[C@@H]1C(=O)N2C(C(=O)O)=C(CSc3nnnn3C)CS[C@H]12)c1csc(N)n1.Cl ... 4.23e-05

====

- CONDITION NOTES: in water, 283.15 K
READOUT TYPE: solubility (mole fraction)

CO/N=C(\C(=O)N[C@@H]1C(=O)N2C(C(=O)O)=C(CSc3nnnn3C)CS[C@H]12)c1csc(N)n1.CO/N=C(\C(=O)N[C@@H]1C(=O)N2C(C(=O)O)=C(CSc3nnnn3C)CS[C@H]12)c1csc(N)n1.Cl ... 3.26e-05

====

- CONDITION NOTES: in ethanol, 288.15 K
READOUT TYPE: solubility (mole fraction)

CO/N=C(\C(=O)N[C@@H]1C(=O)N2C(C(=O)O)=C(CSc3nnnn3C)CS[C@H]12)c1csc(N)n1.CO/N=C(\C(=O)N[C@@H]1C(=O)N2C(C(=O)O)=C(CSc3nnnn3C)CS[C@H]12)c1csc(N)n1.Cl ... 2.83e-05

====

- CONDITION NOTES: in methanol, 308.15 K
READOUT TYPE: solubility (mole fraction)

CO/N=C(\C(=O)N[C@@H]1C(=O)N2C(C(=O)O)=C(CSc3nnnn3C)CS[C@H]12)c1csc(N)n1.CO/N=C(\C(=O)N[C@@H]1C(=O)N2C(C(=O)O)=C(CSc3nnnn3C)CS[C@H]12)c1csc(N)n1.Cl ... 0.000275
